B1: Caulobacter ParB omega fusion; a variant is named by its letters at X, in order, B8GW30 (parent)
chain: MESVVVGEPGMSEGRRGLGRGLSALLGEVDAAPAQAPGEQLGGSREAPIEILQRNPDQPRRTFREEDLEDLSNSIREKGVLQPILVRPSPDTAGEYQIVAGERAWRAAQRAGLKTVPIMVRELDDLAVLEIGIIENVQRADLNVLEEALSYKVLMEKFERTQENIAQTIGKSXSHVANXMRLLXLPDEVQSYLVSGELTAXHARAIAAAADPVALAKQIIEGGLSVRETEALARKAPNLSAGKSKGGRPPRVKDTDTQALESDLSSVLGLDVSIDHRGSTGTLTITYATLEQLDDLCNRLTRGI

Variants of: B1
TEST_DETAILS: one-hybrid fitness for binding parS DNA (scaled: cognate 1, non-cognate 0); higher = stronger binding
CONDITIONS_USED: with parS DNA site
Whole data set: some 81,000 sequences, median “one-hybrid fitness for binding parS DNA” near -0.17, cut for the highest 2% near 0.51. The sample holds the highest values, similar sequences and a random draw of the others, so the mix is not that of the screen.
Listed here are variants together with their documented one-hybrid fitness for binding parS DNA.

Some entries whose results are on file:
>  <MUTANT_NAME>
MGLM

>  <MEASUREMENT_KIND>
one-hybrid fitness for binding parS DNA

>  <TEST_VALUE>
≤ 0.2

$$$$
>  <MUTANT_NAME>
RYMC

>  <MEASUREMENT_KIND>
one-hybrid fitness for binding parS DNA

>  <TEST_VALUE>
0.994

$$$$
>  <MUTANT_NAME>
RFSP

>  <MEASUREMENT_KIND>
one-hybrid fitness for binding parS DNA

>  <TEST_VALUE>
≤ 0.2

$$$$

Memo: "WANF" , reported one-hybrid fitness for binding parS DNA: ≤ 0.2

Memo: "RYMP" , reported one-hybrid fitness for binding parS DNA: ≤ 0.2

Memo: "RHPG" , reported one-hybrid fitness for binding parS DNA: 0.451

Memo: "KEPT" , reported one-hybrid fitness for binding parS DNA: ≤ 0.2

Memo: "RASN" , reported one-hybrid fitness for binding parS DNA: 0.435

Memo: "MEVR" , reported one-hybrid fitness for binding parS DNA: ≤ 0.2

Ref: a collection of fitness landscapes (doi:10.1016/j.celrep.2020.107928)
